Values from PubChem BioAssay (NCI)

- Tested on: NCI-H226 lung
- Test Details: NCI-60 one-dose screen, 48 h
- Test Parameters: 10 µM unless noted
Compounds without any hit were thinned out: in the full panel of roughly 83,000, 20% have a hit. Calls of active or inactive are those of the source. Rule for the calls: active = growth percent below 10; inactive = the rest.
Outcome codes: 1.0 = active, 0.0 = inactive

1. O=C(O)c1occ(Cl)c1Cl    0.0
2. COc1cc(N2C(=O)C=CC2=O)ccc1N1C(=O)C=CC1=O    0.0
3. O=P(OCCCl)(OCCCl)C(O)c1ccccc1Cl (stereo not drawn)    0.0
4. CNCCCNCCCCNCCCN1C(=O)c2ccc3c4c(ccc(c24)C1=O)C(=O)N(CCCNCc1ccccc1OC)C3=O    0.0
5. O=C(Cc1ccccc1[N+](=O)[O-])c1ccc2c(c1)OCO2    0.0
6. CCCCCCNC(=O)Oc1ccc(/C(=C(/C)Cc2ccc(OC)cc2)c2ccc(OCCN3CCCCC3)cc2)cc1    0.0
7. C=C(NC(=O)[C@H](C(C)C)N(C)c1cccc2[nH]ccc12)C(=O)OC    0.0
8. O=C(/C=C\c1ccccc1Cl)c1ccccc1    0.0
9. COc1cc(NC(C)CCCN)c2nccc(C)c2c1OC (stereo not drawn)    0.0
10. CC(=O)CCS(=O)c1ccccc1 (stereo not drawn)    0.0
11. CCN(CC)CCCNc1c2ccc(Cl)cc2nc2ccc(OC)cc12    1.0
12. Brc1c(-c2ccncc2)nc2n1CCS2    0.0
13. Cn1cnc2nc[nH]c2c1=S    0.0

###

Catalogue of growth values
- System: NCI-H226 lung
- Test Details: NCI-60 one-dose screen, 48 h (100 = growth as untreated, 0 = no growth, -100 = all killed)
- Test Parameters: 10 µM unless noted
The panel holds about 83,000 compounds, 20% with a hit somewhere; the sample as a whole holds those more often.
Measured Property: growth (%)

1) CC(CCN1CCN(CCC(C)CC(C)(C)C)C1CC(C)CC(C)(C)C)CC(C)(C)C (centres undefined)    98.7
2) COc1ccccc1C(=O)Nc1cccc(-c2cc(=O)c3c(OC)c(OC)c(OC)cc3o2)c1    58.4
3) C/C(CCC(=O)O)=N/Nc1ccc([N+](=O)[O-])cc1    93.3
4) COc1cccc(CNC(=O)c2cccc(C3CC(=O)c4c(cc(OC)c(OC)c4OC)O3)c2)c1 (centres undefined)    78.2

###

- System: MCF7 breast
- Test Details: NCI-60 one-dose screen, 48 h (100 = growth as untreated, 0 = no growth, -100 = all killed)
- Test Parameters: 10 µM unless noted
Compounds without any hit were thinned out: in the full panel of roughly 83,000, 20% have a hit.
Measured Property: growth (%)

1. CC(=O)Nc1ccc(S(=O)(=O)Cl)cc1    96
2. C[C@@H](c1ccc2c(c1)[nH]c1ccc(Cl)cc12)c1nc2ccccc2[nH]1    27.6
3. COc1cc(/C=C/C(=O)c2ccc(F)cc2)ccc1OCCCCOc1cc2c(cc1OC)C(=O)N1CCCC1C=N2 (stereo not drawn)    -19.5
4. COc1ccc(OC)c(Cn2cc3c(c2-c2ccccc2)CCc2cnoc2-3)c1    44.4
5. COc1ccc(-c2nc(SCC(C)C)nc(Nc3ccc(C)cc3)c2C#N)cc1    70.3
6. CCCCCCCCCCCCCCCC[n+]1cccc(C#N)c1    38.5
7. CN1CCN(Cc2ccc(NC(=O)c3cncc(C#Cc4c(N)ncc5ccc(F)cc45)c3)cc2C(F)(F)F)CC1    6.26
8. O=C(NCCNCCO)c1cc([N+](=O)[O-])cc([N+](=O)[O-])c1O    102
9. CCOC(=O)C1=C(c2ccccc2)NC(=O)NC1CN1C(=O)c2ccccc2C1=O (stereo not drawn)    98.3
10. N#Cc1ccc(OCc2nc(N)nc(N)c2-c2ccc(Cl)c(Cl)c2)cc1    15.2
11. COC(c1ccccc1)C(Br)C(=O)c1ccccc1 (stereo not drawn)    98.5
12. COC(=O)C(N)CC(C)C (stereo not drawn)    98.3
13. Cn1c2ccccc2c2ccccc21    106
14. O=C1C(Cl)=C(SC2=NCCN2)C(=O)c2ccccc21    61.1
15. COc1cc2ncnc(-n3ncc4cc(NC(=O)Nc5ccccc5)ccc43)c2cc1OC    -20.3
16. CCCC(C)c1cc(Cc2cc(Cl)cc(Cl)c2O)c(O)c(Cc2cc(Cl)cc(Cl)c2O)c1 (stereo not drawn)    4.88
17. CN1C(=O)C(=Cc2coc3ccc(Br)cc3c2=O)C(=O)N(C)C1=O    88.3
18. COc1cc(OC)cc(-c2ccc(-c3ccc(C(=N)N)cc3)s2)c1    -75.2
19. NCCCOc1cc(Cl)ccc1NC(=O)c1cc2ccccc2cc1OCCCN    -93.9
20. CC(C)CCCCCOC(=O)c1ccccc1SSc1ccccc1C(=O)OCCCCCC(C)C    93.6
21. CC1(C)CC(=O)C2=C(C1)Oc1nc(N)c(C#N)c(N)c1C2c1ccc(F)cc1 (stereo not drawn)    109
22. S=C(N/N=C/c1cc(Cl)cc(Cl)c1)NC12CC3CC(CC(C3)C1)C2    82.5
23. O=C(/C=C/c1ccc(Br)cc1)c1ccccc1    8.28
